Source: ChEMBL document CHEMBL3988442

Reported Percent Effect by item:
Test system: Mycobacterium tuberculosis
Assay: Cornell M. t heat shock assay; further: in the data most compounds retested in dose-response had high values
Format: functional, organism-based
Set-up: dose or concentration left out as unconfirmed
Screen size: about 69,000 compounds; about 950 (1.4%) showed an effect of 50% or more. What follows is part of a selection rich in strong results, with near analogues and random picks from the rest.
Respond with the bare value in %.

Field: example entries. Status: answers known.
Chemical structure | Reported value
COCC(=O)N1CCC(c2cc3ncccc3c(O)n2)CC1 | 10.22
CCn1cncc1CN1CCN(CC2(c3ccc(C)cc3)CC2)CC1.Cl | -24.04
O=c1c(-c2ccnc(N3CCCC[C@@H]3CO)n2)cnc2sccn12 | -1.826
CCCC(=O)N1CCC(c2cc3cccnc3c(O)n2)CC1 | -11.07
Cc1csc2ncc(-c3ccnc(N4CCCC[C@@H]4CO)n3)c(=O)n12 | 73.7
CCOCC(=O)N1CCC(c2cc3ncccc3c(O)n2)CC1 | -9.964
O=C(CCC1CCCC1)N1CCC(c2cc3ncccc3c(O)n2)CC1 | 59.08
CC(C)C(=O)N1CCN(C(=O)c2cc(C(C)C)on2)[C@H]2CS(=O)(=O)C[C@H]21 | -10.22
CC(C)C(=O)N1CCN(C(=O)c2cscn2)[C@H]2CS(=O)(=O)C[C@H]21 | 73.31

Shift focus to the following entry.
Q. Give the value of Percent Effect reported for the following: Cc1cnc(C(=O)N2CCN(C(=O)C(C)C)[C@@H]3CS(=O)(=O)C[C@@H]32)cn1
A. 4.224
